Cited source for all entries: BigSolDB 2.1

Conditions: in isopropanol, 303.15 K
Parameter measured: solubility (mole fraction)
Keep it simple and answer with nothing but the number.

Need solubility (mole fraction), item CN(CCOc1ccc(CC2SC(=O)NC2=O)cc1)c1ccccn1 (stereo unspecified)
0.000282

====

Conditions: in n-propanol, 303.15 K
Parameter measured: solubility (mole fraction)
Keep it simple and answer with nothing but the number.

Need solubility (mole fraction), item CN(CCOc1ccc(CC2SC(=O)NC2=O)cc1)c1ccccn1 (stereo unspecified)
0.000323

====

Conditions: in ethyl acetate, 293.15 K
Parameter measured: solubility (mole fraction)
Keep it simple and answer with nothing but the number.

Need solubility (mole fraction), item CN(CCOc1ccc(CC2SC(=O)NC2=O)cc1)c1ccccn1 (stereo unspecified)
0.00205

====

Conditions: in acetone, 313.15 K
Parameter measured: solubility (mole fraction)

Need solubility (mole fraction), item CN(CCOc1ccc(CC2SC(=O)NC2=O)cc1)c1ccccn1 (stereo unspecified)
0.00691

====

Conditions: in n-propanol, 333.15 K
Parameter measured: solubility (mole fraction)
Keep it simple and answer with nothing but the number.

Need solubility (mole fraction), item CN(CCOc1ccc(CC2SC(=O)NC2=O)cc1)c1ccccn1 (stereo unspecified)
0.0029

====

Settings: in ethanol, 303.15 K
Parameter measured: solubility (mole fraction)

Need solubility (mole fraction), item CN(CCOc1ccc(CC2SC(=O)NC2=O)cc1)c1ccccn1 (stereo unspecified)
0.000458

====

Settings: in n-propanol, 283.15 K
Parameter measured: solubility (mole fraction)

Need solubility (mole fraction), item CN(CCOc1ccc(CC2SC(=O)NC2=O)cc1)c1ccccn1 (stereo unspecified)
0.000276

====

Details: in n-butyl acetate, 313.15 K
Parameter measured: solubility (mole fraction)

Need solubility (mole fraction), item CN(CCOc1ccc(CC2SC(=O)NC2=O)cc1)c1ccccn1 (stereo unspecified)
0.00355

====

Details: in methyl acetate, 313.15 K
Parameter measured: solubility (mole fraction)

Need solubility (mole fraction), item CN(CCOc1ccc(CC2SC(=O)NC2=O)cc1)c1ccccn1 (stereo unspecified)
0.0052
